These measurements were taken from patent EP4371976B1.

measurement-protocol: Size distribution, polydispersity and Z-potential of LNPs by dynamic light scattering (Malvern Zetasizer)
Type: physicochemical
condition-label: LNPs, standard formulation 50:10:38.5:1.5; DLS
parameter-measured: P.D.I.

molecule | number
CCCCCCCCC(CCCCCC)C(=O)NC(CCSCCC(=O)OCCCCCCC)C(=O)NCCCN(CCO)CCO (stereo not drawn) | 0.2
CCCCCCCCOC(=O)CCSCC(CC(=O)NCCCN1CCOCC1)C(=O)OC(CCCCCCCC)CCCCCCCC (stereo not drawn) | 0.15
CCCCCCCCCCCCCOC(=O)CCSCCC(NC(=O)C(CCCCCC)CCCCCCCC)C(=O)NCCN(CC)CC (stereo not drawn) | 0.085

[A] CCCCCCCCC(CCCCCC)COC(=O)CCSCCC(NC(=O)C(CCCCCC)CCCCCCCC)C(=O)NC1CCN(C)CC1 (stereo not drawn)
[B] CCCCCCCCCCCCCCCCOC(=O)CCSCC(CC(=O)NCCCN1CCOCC1)C(=O)OC(CCCCCCCC)CCCCCCCC (stereo not drawn)
Sorting ascending by P.D.I., which comes first: A or B ? Pick one and reply with its label.
A
(A: 0.11, B: 0.18)

###

measurement-protocol: Size distribution, polydispersity and Z-potential of LNPs by dynamic light scattering (Malvern Zetasizer)
Type: physicochemical
condition-label: LNPs, standard formulation 50:10:38.5:1.5; DLS
parameter-measured: Particle size/ Ø (nm)

molecule | Particle size/ Ø (nm)
CCCCCCCC/C=C\CCCCCCCCOC(=O)CCSCCC(NC(=O)CCCCCCC/C=C\CCCCCCCC)C(=O)NCCCN1CCOCC1 (stereo not shown) | 242.2
CCCCCCCCCCCCOC(=O)CCSCCC(C(=O)NCCCN1CCOCC1)C(=O)OCC(CCCCCC)CCCCCCCC (stereo not shown) | 168.6
CCCCCCCCC(CCCCCC)C(=O)NC(CCSCCC(=O)OCC(CC)CCCC)C(=O)NCC1CCN(C)CC1 (stereo not shown) | 128.8
CCCCCCCCCCCCC(CCCCCCCCCC)COC(=O)CCSCC(CC(=O)NCCCN1CCOCC1)C(=O)OC(CCCCCCCC)CCCCCCCC (stereo not shown) | 196.2
CCCCCCCCCCC(CCCCCCCC)C(=O)NC(CCSCCC(=O)OCC(CC)CCCC)C(=O)NCC1CCN(C)CC1 (stereo not shown) | 144.9
CCCCCCCCCCCCCOC(=O)CCSCCC(C(=O)NC1CCN(C)CC1)C(=O)OC(CCCCCCCC)CCCCCCCC (stereo not shown) | 186.5
CCCCCCCCCCCCOC(=O)CCSCCC(NC(=O)C(CCCCCC)CCCCCCCC)C(=O)NCC1CCN(C)CC1 (stereo not shown) | 169.8
CCCCCCCC/C=C\CCCCCCCCOC(=O)CCSCCC(NC(=O)CCCCCCCCCCCCCCCCC)C(=O)NC1CCN(C)CC1 (stereo not shown) | 181.3
CCCCCCCC/C=C\CCCCCCCCOC(=O)CCSCCC(NC(=O)C(CCCCCC)CCCCCCCC)C(=O)NC1CCN(C)CC1 (stereo not shown) | 216.2
CCCCCCCCCCCCCCOC(=O)CCSCCC(C(=O)NC1CCN(C)CC1)C(=O)OC(CCCCCCCC)CCCCCCCC (stereo not shown) | 185.7
CCCCCCCCCCCCCCOC(=O)CCSCCC(NC(=O)C(CCCCCC)CCCCCCCC)C(=O)NCCN(CC)CC (stereo not shown) | 156.2
CCCCCCCCOC(=O)CCSCCC(NC(=O)C(CCCCCC)CCCCCCCC)C(=O)NCCN1CCN(C)CC1 (stereo not shown) | 135.2
CCCCCCCCCCCCCCCCCCOC(=O)CCSCCC(NC(=O)C(CCCCCC)CCCCCCCC)C(=O)NC1CCN(C)CC1 (stereo not shown) | 143.5
CCCCCCCCCCCCCCCCCC(=O)NC(CCSCCC(=O)OCCCCCCCCCCCCC)C(=O)NCCCN1CCOCC1 (stereo not shown) | 174.7
CCCCCCCCC(CCCCCC)C(=O)NC(CCSCCC(=O)OCCCCCCCC(C)C)C(=O)NCCCN1CCOCC1 (stereo not shown) | 181.9
CCCCCCCCC(CCCCCC)COC(=O)CCSCCC(NC(=O)C(CCCCCC)CCCCCCCC)C(=O)NCCN(CC)CC (stereo not shown) | 153.2
CCCCCCCCCCCCCCCCOC(=O)CCSCC(CC(=O)NC1CCN(C)CC1)C(=O)OCC(CCCCCC)CCCCCCCC (stereo not shown) | 158.6
CCCCCCCCCCC(CCCCCCCC)C(=O)NC(CCSCCC(=O)OCC(CC)CCCC)C(=O)NC1CCN(C)CC1 (stereo not shown) | 138.8
CCCCCCCCC(CCCCCC)C(=O)NC(CCSCCC(=O)OCC(CC)CCCC)C(=O)NC1CCN(C)CC1 (stereo not shown) | 179

###

measurement-protocol: RNA encapsulation efficiency of LNPs by Quant-IT Ribogreen
Type: physicochemical
condition-label: LNPs with luciferase mRNA; ionizable lipid:non-cationic lipid:sterol:PEG-modified lipid 50:10:38.5:1.5; percentage of RNA entrapped in the LNP
parameter-measured: Encaps. efficiency (%)

Reference set, count: 5
molecule | Encaps. efficiency (%)
CCCCCCCCC(CCCCCC)COC(=O)CCSCC(CC(=O)NC1CCN(C)CC1)C(=O)OCC(CCCCCC)CCCCCCCC (stereo not drawn) | 59.89
CCCCCCCCCCCCCOC(=O)CCSCCC(C(=O)NC1CCN(C)CC1)C(=O)OC(CCCCCCCC)CCCCCCCC (stereo not drawn) | 78.30
CCCCCCCCCCCCCCCCCCOC(=O)CCSCC(CC(=O)NCCCn1ccnc1)C(=O)OC(CCCCCCCC)CCCCCCCC (stereo not drawn) | 36.51
CCCCCCCCC(CCCCCCCC)OC(=O)C(CCSCCC(=O)OCCCCCCCC(C)C)C(=O)NCCCn1ccnc1 (stereo not drawn) | 78.29
CCCCCCCCC(CCCCCCCC)OC(=O)C(CSCCC(=O)OCCCCCC(C)C)CC(=O)NCCCN1CCOCC1 (stereo not drawn) | 30.22

[a] CCCCCCCCCCCCOC(=O)CCSCCC(C(=O)NCCCn1ccnc1)C(=O)OC(CCCCCCCC)CCCCCCCC (stereo not drawn)
[b] CCCCCCCCCCCCCOC(=O)CCSCC(CC(=O)NCCCN1CCOCC1)C(=O)OC(CCCCCCCC)CCCCCCCC (stereo not drawn)
Recorded Encaps. efficiency (%) values differ for a and b ; which one is higher? Pick one and reply with its label.
a

[A] CCCCCCCC#CCOC(=O)CCSCCC(NC(=O)C(CCCCCC)CCCCCCCC)C(=O)NCC1CCN(C)CC1 (stereo not drawn)
[B] CCCCCCCCCCCCOC(=O)CCSCC(CC(=O)NCCCn1ccnc1)C(=O)OC(CCCCCCCC)CCCCCCCC (stereo not drawn)
Recorded Encaps. efficiency (%) values differ for A and B ; which one is higher? Pick one and reply with its label.
A
(A: 99.88%, B: 59.92%)

###

measurement-protocol: RNA encapsulation efficiency of LNPs by Quant-IT Ribogreen
Format: physicochemical
condition-label: LNPs with luciferase mRNA; ionizable lipid:non-cationic lipid:sterol:PEG-modified lipid 50:10:38.5:1.5; percentage of RNA entrapped in the LNP
Method: The mRNA aqueous solution was then carefully added to the ethanol solution, and the resulted solution was homogenized by pipetting up and down for 4-5 times. The resulting LNPs were immediately diluted 1:1 with Tris buffer and dialyzed overnight against Tris buffer containing 15% sucrose. The resulting LNP solution was then collected, and the encapsulated mRNA was assessed by Quant-IT® Ribogreen (Invitrogen R11490) following the manufacturer's instructions. […]
parameter-measured: Encaps. efficiency (%)

Reference set, count: 4
compound | units-text | number
CCCCCCCC#CCOC(=O)CCSCC(CC(=O)NC1CCN(C)CC1)C(=O)OCC(CCCCCC)CCCCCCCC (centres unmarked) | % | 96.86
CCCCCCCCC(CCCCCC)C(=O)NC(CCSCCC(=O)OCCCCCC(C)C)C(=O)NCCCN1CCOCC1 (centres unmarked) | % | 53.65
CCCCCCCCCCCCCOC(=O)CCSCCC(C(=O)NCCCn1ccnc1)C(=O)OC(CCCCCCCC)CCCCCCCC (centres unmarked) | % | 73.55
CCCCCCCC/C=C\CCCCCCCC(=O)NC(CCSCCC(=O)OCCCCCC(C)C)C(=O)NCCCN(CCO)CCO (centres unmarked) | % | 92.48

[1] CCCCCCCCCCC(CCCCCCCC)C(=O)NC(CCSCCC(=O)OCC(CC)CCCC)C(=O)NC1CCN(C)CC1 (centres unmarked)
[2] CCCCCCCCCCCCOC(=O)CCSCCC(NC(=O)C(CCCCCCCC)CCCCCCCCCC)C(=O)NCC1CCN(C)CC1 (centres unmarked)
Sorting ascending by Encaps. efficiency (%), which comes first: 1 or 2 ? Pick one and reply with its label.
1

###

measurement-protocol: Size distribution, polydispersity and Z-potential of LNPs by dynamic light scattering (Malvern Zetasizer)
Format: physicochemical
condition-label: LNPs, standard formulation 50:10:38.5:1.5; DLS
parameter-measured: Z Potential (± D.E.) [mV] (mV)

Reference set, count: 2
compound | Z Potential (± D.E.) [mV] [mV]
CCCCCCCCCCCCCCCCOC(=O)CCSCCC(C(=O)NCCCn1ccnc1)C(=O)OC(CCCCCCCC)CCCCCCCC (stereo not shown) | -10.72
CCCCCCCCC(CCCCCCCC)OC(=O)C(CCSCCC(=O)OCCCCCC(C)C)C(=O)NCCCn1ccnc1 (stereo not shown) | -7.08

[I] CCCCCCCCC(CCCCCC)COC(=O)CCSCCC(NC(=O)C(CCCCCC)CCCCCCCC)C(=O)NC1CCN(C)CC1 (stereo not shown)
[II] CCCCCCCCCCCCCCCCOC(=O)CCSCC(CC(=O)NCCCN1CCOCC1)C(=O)OC(CCCCCCCC)CCCCCCCC (stereo not shown)
Recorded Z Potential (± D.E.) [mV] values differ for I and II ; which one is higher? Pick one and reply with its label.
I
(I: -0.28 mV, II: -13.52 mV)
